In this section, each of the molecules is paired with its reported Bulk density.
- experimentSummary: Bulk density (USP 616, Method 1)
- Assay type: physicochemical
- assayConditions: crystalline powder

# example entries with known answers
                                   molecule          result
0  Nc1ccc(O)c(C(=O)O)c1 [5-ASA coarse acicular crystals, 5-aminosalicylic acid]  250 to 270 g/L
1  Nc1ccc(O)c(C(=O)O)c1 [Example 2, 5-aminosalicylic acid]  300 to 400 g/L
2  Nc1ccc(O)c(C(=O)O)c1 [Example 1, 5-aminosalicylic acid]  400 to 500 g/L

// moving on: another record for Bulk density
Looking for the measured Bulk density of Nc1ccc(O)c(C(=O)O)c1 [5-ASA fine acicular crystals, 5-aminosalicylic acid] , can you help?
150 to 190 g/L

* * *

- experimentSummary: Tapped density (USP 616, Method 2)
- Type: physicochemical
- assayConditions: crystalline powder
In this section, each of the compounds is paired with its reported Tapped density.

# example entries with known answers
                                   compound    quantitykind          result
0  Nc1ccc(O)c(C(=O)O)c1 [5-ASA fine acicular crystals, 5-aminosalicylic acid]  Tapped density  300 to 390 g/L
1  Nc1ccc(O)c(C(=O)O)c1 [5-ASA coarse acicular crystals, 5-aminosalicylic acid]  Tapped density  450 to 480 g/L
2  Nc1ccc(O)c(C(=O)O)c1 [Example 1, 5-aminosalicylic acid]  Tapped density  600 to 800 g/L

// moving on: another record for Tapped density
Looking for the measured Tapped density of Nc1ccc(O)c(C(=O)O)c1 [Example 2, 5-aminosalicylic acid] , can you help?
510 to 700 g/L

* * *

- experimentSummary: Grain size distribution by laser light diffraction (Ph. Eur. 2.9.31)
- Format: physicochemical
quantityKind: Grain size distribution X(90)

Looking for the measured Grain size distribution X(90) of Nc1ccc(O)c(C(=O)O)c1 [Example 1, 5-aminosalicylic acid] , can you help?
80-90 μm

Looking for the measured Grain size distribution X(90) of Nc1ccc(O)c(C(=O)O)c1 [Example 2, 5-aminosalicylic acid] , can you help?
90-100 μm

* * *

In this section, each of the molecules is paired with its reported Grain size distribution X(50).
- experimentSummary: Grain size distribution by laser light diffraction (Ph. Eur. 2.9.31)
- Assay type: physicochemical

>>> df
                                   molecule    result
0  Nc1ccc(O)c(C(=O)O)c1 [Example 1, 5-aminosalicylic acid]  25-35 μm

// moving on: another record for Grain size distribution X(50)
Looking for the measured Grain size distribution X(50) of Nc1ccc(O)c(C(=O)O)c1 [Example 2, 5-aminosalicylic acid] , can you help?
15-45 μm
